target: Sodium- and chloride-dependent GABA transporter 1 (Homo sapiens); test: Inhibition of human GAT1 expressed in HEK293 cells by [3H]GABA uptake assay; type: cell-based
Sequence (P30531 whole entry): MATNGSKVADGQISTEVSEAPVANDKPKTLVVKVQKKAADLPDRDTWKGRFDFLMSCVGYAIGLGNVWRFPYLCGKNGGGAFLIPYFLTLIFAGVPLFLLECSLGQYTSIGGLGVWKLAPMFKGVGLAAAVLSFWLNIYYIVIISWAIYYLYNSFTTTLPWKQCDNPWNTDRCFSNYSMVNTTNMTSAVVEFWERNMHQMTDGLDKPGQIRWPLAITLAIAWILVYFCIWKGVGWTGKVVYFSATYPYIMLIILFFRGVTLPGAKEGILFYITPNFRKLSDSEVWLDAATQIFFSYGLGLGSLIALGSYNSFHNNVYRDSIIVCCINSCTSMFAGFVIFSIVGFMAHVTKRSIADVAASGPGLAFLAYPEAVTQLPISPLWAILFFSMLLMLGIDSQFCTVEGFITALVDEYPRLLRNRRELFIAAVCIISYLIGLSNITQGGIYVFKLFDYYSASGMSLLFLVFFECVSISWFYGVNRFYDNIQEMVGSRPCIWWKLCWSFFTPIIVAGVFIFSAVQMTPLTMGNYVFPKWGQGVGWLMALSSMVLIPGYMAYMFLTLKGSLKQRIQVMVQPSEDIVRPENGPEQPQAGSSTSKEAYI
VALUE_KIND: pIC50
Just the number, please; pIC50 means minus log10 of the concentration in mol/L.

Sample records with pIC50:
• Cc1ccsc1C(=CCCN1CCC[C@@H]1[C@H](O)C(=O)O)c1sccc1C (racemic) = 6.14
• Cc1ccsc1C(=CCCN1CCC[C@@H]1[C@@H](O)C(=O)O)c1sccc1C (racemic) = 5.38
• O=C(O)[C@@H](O)[C@H]1CCCN1CCC=C(c1ccccc1)c1ccccc1 (racemic) = 5.72

Next:
Task: Need pIC50, item O=C(O)[C@H](O)[C@H]1CCCN1CCC=C(c1ccccc1)c1ccccc1 (racemic)
Result: 4.86
